- Tested on: HBL 100 (Breast)
- test description: MTT cytotoxicity assay, 48 hours (Example 14)
- Format: cell-based, human
- condition label: HBL100, 10 pM
Non-standard residues stand in square brackets, D forms with d. Residues, ends and D or L forms follow the SMILES beside them. Deg = CCC(N)(CC)C(=O)O

[
  {
    "molecule": "CCC(CC)(NC(=O)[C@H](Cc1c[nH]c2ccccc12)NC(=O)[C@H](CCC(N)=O)NC(=O)[C@H](N)Cc1ccccc1)C(=O)N[C@H](C(=O)NCC(=O)N[C@@H](Cc1c[nH]cn1)C(=O)N[C@@H](CC(C)C)C(N)=O)C(C)C [SEQ ID: 9, D-Phe-Gln-Trp-Deg-Val-Gly-His-Leu-NH2] (H-[dF]QW[Deg]VGHL-NH2; N-terminus assumed)",
    "Percentage cytotoxicity [%]": 17.2
  }
]
